B1: ZMYND11 (parent)
chain: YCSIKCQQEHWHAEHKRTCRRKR

Variants of: B1
PROCEDURE_TEXT: protein stability index of a GFP-peptide fusion (GPS, HEK-293T) (PSI 1-6); higher = more stable;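 further: lentivirally expressed fusions sorted by FACS into six bins by GFP to DsRed ratio, PSI derived from sequencing read proportions per bin multiplied by bin number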
CONDITION_LABEL: c terminus: native
Lab note: compare protein stability index against 2. Equal or greater, write condition met. Smaller, write condition not met.

{"columns": ["CHAIN_SEQUENCE", "CATEGORY"],
 "data": [
  ["YCSIKPQQEHWHAEHKRTCRRKR [C6P]", "condition met"],
  ["YCSIKCQQEHMHAEHKRTCRRKR [W11M]", "condition met"],
  ["YCSIKCQQFHWHAEHKRTCRRKR [E9F]", "condition met"],
  ["YCSIKCQQEHWYAEHKRTCRRKR [H12Y]", "condition met"],
  ["YCSIKVQQEHWHAEHKRTCRRKR [C6V]", "condition met"],
  ["YCSRKCQQEHWHAEHKRTCRRKR [I4R]", "condition met"],
  ["YCSIKCQQEHWHAEHKRTMRRKR [C19M]", "condition met"],
  ["YCSIKCQQEHWHAEHDRTCRRKR [K16D]", "condition met"],
  ["WCSIKCQQEHWHAEHKRTCRRKR [Y1W]", "condition met"],
  ["YCSIKCWQEHWHAEHKRTCRRKR [Q7W]", "condition not met"],
  ["YCSIKCQQLHWHAEHKRTCRRKR [E9L]", "condition met"],
  ["YCSIKCQQEHWHAEWKRTCRRKR [H15W]", "condition not met"],
  ["YCSIKCQQEHWHAEHKRDCRRKR [T18D]", "condition met"],
  ["YCSIKCQQEHWHATHKRTCRRKR [E14T]", "condition met"],
  ["YCSIKCQQEHWHAEVKRTCRRKR [H15V]", "condition not met"],
  ["YCSIKCQQEHWHAEHIRTCRRKR [K16I]", "condition met"],
  ["YESIKCQQEHWHAEHKRTCRRKR [C2E]", "condition met"],
  ["YCSIKCQQEHWHAEHKRGCRRKR [T18G]", "condition met"],
  ["YCSIKCQQEHWHAEHKRNCRRKR [T18N]", "condition met"],
  ["YKSIKCQQEHWHAEHKRTCRRKR [C2K]", "condition met"],
  ["YSSIKCQQEHWHAEHKRTCRRKR [C2S]", "condition met"],
  ["YCSGKCQQEHWHAEHKRTCRRKR [I4G]", "condition not met"],
  ["YCSIKCQQEHKHAEHKRTCRRKR [W11K]", "condition met"],
  ["YCSIKCQPEHWHAEHKRTCRRKR [Q8P]", "condition met"],
  ["YCSIKCQQEHWHAEHKRTERRKR [C19E]", "condition met"],
  ["YCSIKCEQEHWHAEHKRTCRRKR [Q7E]", "condition met"],
  ["YCSIKCQQEHWHAEHKRTCRRKD [R23D]", "condition not met"],
  ["YCSIKCSQEHWHAEHKRTCRRKR [Q7S]", "condition met"],
  ["YCSIKCQQEHWHAEHKRTCRKKR [R21K]", "condition met"],
  ["YCSIKIQQEHWHAEHKRTCRRKR [C6I]", "condition not met"],
  ["YGSIKCQQEHWHAEHKRTCRRKR [C2G]", "condition met"],
  ["YCSIKCQQEHWHAEHKRFCRRKR [T18F]", "condition met"],
  ["YCSIKCQQIHWHAEHKRTCRRKR [E9I]", "condition met"],
  ["YCSIKCQQEHWHAEHKRTCRRKP [R23P]", "condition met"],
  ["YCSIKCQQEHWHAEHKRTCRRKK [R23K]", "condition met"],
  ["YCSIKCFQEHWHAEHKRTCRRKR [Q7F]", "condition not met"],
  ["YCSIKCQQAHWHAEHKRTCRRKR [E9A]", "condition met"],
  ["YCSIKCLQEHWHAEHKRTCRRKR [Q7L]", "condition met"],
  ["YCSIKCQQEHLHAEHKRTCRRKR [W11L]", "condition met"],
  ["YCSIMCQQEHWHAEHKRTCRRKR [K5M]", "condition met"],
  ["YCSIKCQQEHWHYEHKRTCRRKR [A13Y]", "condition met"],
  ["YCSIKCQQEHWHAEHKRTCRRKH [R23H]", "condition met"],
  ["YCSIKCQQEVWHAEHKRTCRRKR [H10V]", "condition not met"],
  ["YCSIKCQQEHWHAFHKRTCRRKR [E14F]", "condition not met"],
  ["YCSIKCQQEHWHAMHKRTCRRKR [E14M]", "condition not met"],
  ["YCSISCQQEHWHAEHKRTCRRKR [K5S]", "condition met"],
  ["YCSIKCQQEHWHAEHKRTCRRKQ [R23Q]", "condition met"],
  ["LCSIKCQQEHWHAEHKRTCRRKR [Y1L]", "condition met"],
  ["YCSIKCQQEHWHAEHKRTRRRKR [C19R]", "condition met"],
  ["YCSIKCMQEHWHAEHKRTCRRKR [Q7M]", "condition met"],
  ["YLSIKCQQEHWHAEHKRTCRRKR [C2L]", "condition met"],
  ["YCSEKCQQEHWHAEHKRTCRRKR [I4E]", "condition met"],
  ["YCSIKCQQEHWHAESKRTCRRKR [H15S]", "condition met"],
  ["YCEIKCQQEHWHAEHKRTCRRKR [S3E]", "condition met"],
  ["YCSIKCQQEHWHAEHKRPCRRKR [T18P]", "condition met"],
  ["YCSIKCQQEHWHADHKRTCRRKR [E14D]", "condition met"],
  ["YCSIKCQQEHWHAEHKRTCRRKN [R23N]", "condition met"]
]}
